test system: 786-0 renal; assay: NCI tumour cell line growth inhibition, 48 h
measured_metric: TGI

Form field TGI, entry CN1c2ccccc2C(C)(C)C12CC(c1ccc(Cl)c(S(=O)(=O)N3CCCC3)c1)=NO2 (configuration not stated) : > 100 µM

Sure, the documented TGI for CC12CCC(C1)C(C)(C)C2OC(=O)c1ccccc1C(=O)O (configuration not stated) is > 100 µM

Reported TGI for O=C1OC(C(O)C(O)C(O)CO)C(O)C1O (configuration not stated) was > 100 µM

The molecule CN(Cc1ccccc1)C1(N(C)Cc2ccccc2)CC1 showed TGI equal to > 100 µM

TGI for COC(=O)C(=O)C(C#N)c1ccc(Cl)c(Cl)c1 (configuration not stated) is > 100 µM

The molecule listed as COc1ccc(-c2nn(-c3cccc(NC(=O)Nc4cccc(C(F)(F)F)c4)c3)cc2-c2ccncc2)cc1Cl has a reported TGI of 10.1 µM

Briefly, TGI measured for NCC(=O)CCC(=O)O : > 100 µM

Looking up CC1=N/C(=C\c2cccc3ccccc23)C(=O)O1 , I found its TGI recorded as > 100 µM

response.value for OC1(c2ccc(Cl)cc2)c2ccccc2C2=NCc3ccccc3CN21 (configuration not stated) (field: TGI) = 19.4 µM

The recorded TGI for CC(C)C[C@H](NC(=O)[C@H](CCc1ccccc1)NC(=O)c1ccc2ccccc2n1)B(O)O is 0.706 µM

Notebook: CC(C)C(/C=C/c1ccccc1)=N\NC(=S)NN , TGI read as > 100 µM

// TGI value for c1csc(-c2nnc(C34CC5CC(CC(C5)C3)C4)o2)c1 : 60.2 µM

Summary for this molecule, COc1ccc(CCC2NCCc3cc(OC)c(OC)cc32)cc1 (configuration not stated) : TGI is > 100 µM

Record summary for c1ccc2c(c1)ccc1c3ccccc3ccc21 : reported TGI = > 50 µM

Lab book: TGI of O=c1c(S(=O)(=O)Oc2ccccc2)coc2cc(F)ccc12 noted as > 100 µM

Reported TGI ( CCCN(CCC)c1c([N+](=O)[O-])cc(C(=O)N(C)C)cc1[N+](=O)[O-] ) = > 100 µM

molecule CCOC(=O)C12C(=O)CCN1CCc1ccccc1C2C (configuration not stated) , TGI observed: > 100 µM

The molecule identified as CC(=O)C(C(=O)C(C)(C)C)C(=O)C(C)(C)C registered its TGI at > 100 µM

Form field TGI, entry CCC(C)CC(CC)NCCN1CCN(C(CC)CC(C)CC)C1=S (configuration not stated) : 3.3 µM

The molecule O=C1c2ccccc2C2(O)Oc3cccc(O)c3C12O (configuration not stated) showed TGI equal to > 100 µM

Per the records, this molecule ( COc1ccc2sc3c(NCCCNCCO)nc4ccccc4c3c(=O)c2c1 ) has TGI equal to 2.82 µM

Entry CN(/N=C/c1ccc(Cl)c(Cl)c1)C1=NCCN1 ; TGI = 34.2 µM

// CC1=CC(=O)/C(=C/N2CCNC2=S)C(=O)O1 : TGI value = > 100 µM

Field TGI (entry Cc1cnc2[nH]c(-c3cccc(Cl)c3)cc(=O)c2c1 ) reads > 100 µM

Summary for this molecule, O=Cc1cc(O)c(O)c(/C=N/n2c3ccccc3c3ccccc32)c1 : TGI is 20.7 µM

Field TGI (entry CC(C)(C)c1ccc(O)c(C(O)c2cccnc2)c1 (configuration not stated) ) reads > 100 µM

TGI recorded for this molecule, Cc1nc(N)nc(N)c1N1CCN(Cc2ccccc2)CC1 , is > 100 µM

Lookup result for C1C[OH+]CC[OH+]CC[OH+]CC[OH+]CC[OH+]CC[OH+]1.[Cl-].[Ta+5] ; measured TGI: > 100 µM

Value of TGI reported for the molecule O=C1/C(=C2\SCC(=O)N2c2ccccc2)SC(=S)N1c1ccccc1 is > 100 µM

Looking up COC(=O)c1cc2c(cc1Cl)SC(N(N(C)C)S(=O)(=O)c1ccc(Cl)cc1)=NS2(=O)=O , I found its TGI recorded as > 100 µM

In plain terms, CCOC(=O)c1ccc(NC(NC(=O)CC)(C(F)(F)F)C(F)(F)F)cc1 has a documented TGI of > 100 µM

Record summary for C#CC#CC#CC#CC#CC#CC#CC#CCC1OC[C@H](COC(=O)O[C@@H](C(=O)O[C@H]2C[C@@]3(O)[C@@H](OC(=O)c4ccccc4)[C@@H]4[C@]5(OC(C)=O)CO[C@@H]5C[C@H](O)[C@@]4(C)C(=O)[C@H](OC(C)=O)C(=C2C)C3(C)C)[C@@H](NC(=O)c2ccccc2)c2ccccc2)O1 (some centres not stated) : reported TGI = > 33.3 µM

----------
tested on: SR leukemia; assay: NCI tumour cell line growth inhibition, 48 h; in the data active = GI50 below about 0.43 µM; inactive = the rest
Pick one and only one: active, inactive

query: What classification did COc1ccc(-c2[nH]ncc2-c2cc(OC)c(OC)c(OC)c2)cc1 end up with in this test?
result: active

query: Recorded call for C=C1CO[C@@H]2C[C@@H]1CCC1(C)OC1CC/C(C)=C/CC[C@@]2(C)O (stereo not given in full) ?
result: inactive

query: What is the recorded call for this compound in the test? Cc1ccccc1NC(=O)c1sc2nc3c(cc2c1N)C(=O)CCC3
result: inactive

query: Give the logged outcome of this assay for the following compound: CN(C)CCCC(=O)Nc1ccc(Cn2nnc3c2C(=O)c2nnn(Cc4ccc(NC(=O)CCCN(C)C)cc4)c2C3=O)cc1
result: inactive

query: For O=C1C(=O)c2c(nc3ncccn23)-c2ccccc21 , which call appears in the assay record?
result: active

----------
Please provide measured TGI for the entries that follow.
test system: SK-MEL-2 melanoma; test: NCI tumour cell line growth inhibition, 48 h

O=C1NC(=S)NC(=O)C1=Cc1ccc2ccccc2n1 tested on SK-MEL-2 melanoma gave TGI: > 100 µM

Test item Cc1oc2c(C)c3oc(=O)cc(C)c3cc2c1CN ; SK-MEL-2 melanoma; reported TGI was > 100 µM

Field TGI (system: SK-MEL-2 melanoma) for entry COc1ccc(Nc2c[nH]c(=O)[nH]c2=O)cc1 = > 100 µM

Value sought: TGI, system SK-MEL-2 melanoma, item c1cn[nH]c1 . Result: > 10 µM

Field TGI (SK-MEL-2 melanoma), entry c1ccc2c(c1)ccc1c3ccccc3ccc21 : > 50 µM

The value of TGI recorded for COC1=CCC2=C(CCN(C(=O)C3CCC3)C2Cc2ccc(OC)c(O)c2)C1 (stereo unspecified) when tested on SK-MEL-2 melanoma reads > 100 µM

----------
Exercise: state measured GI50 for each of the molecules provided.
system: SW-620 colon; test: NCI tumour cell line growth inhibition, 48 h

GI50 recorded for this molecule, C=C1CO[C@@H]2C[C@@H]1CCC1(C)OC1CC/C(C)=C/CC[C@@]2(C)O (stereo partly drawn) , is 15.8 µM

# molecule COC(=O)[C@]12CC[C@@H](C)[C@H](C)[C@@H]1C1=CC[C@@H]3[C@@]4(C)C=C(O)C(=O)C(C)=C4CC[C@@]3(C)[C@]1(C)CC2 ; its GI50 = 17.3 µM

Record summary for Nc1nc(Nc2ccc3c(c2)CCC(N2CCCC2)CC3)nn1-c1cc2c(nn1)-c1ccccc1CCC2 (stereo not drawn) : reported GI50 = 1.31 µM

----------
test system: M14 melanoma; experiment: NCI tumour cell line growth inhibition, 48 h
measured_metric: TGI (µM)
Respond with the bare value in µM.

The value of TGI measured for the molecule COc1ccc(-c2nn(-c3cccc(NC(=O)Nc4cccc(C(F)(F)F)c4)c3)cc2-c2ccncc2)cc1Cl turned out to be 4.62

Record summary for CCCCc1nc2cc(/C=C/C(=O)NO)ccc2n1CCN(CC)CC : reported TGI = 5.32

----------
What GI50 was measured for each of the following?
test system: SF-539 CNS; assay: NCI tumour cell line growth inhibition, 48 h

Kindly note the recorded GI50 for CC(C)[C@@H](CS(=O)(=O)C(C)C)N1C(=O)[C@@](C)(CC(=O)O)C[C@H](c2cccc(Cl)c2)[C@H]1c1ccc(Cl)cc1 , which is 14 µM

get_value(item= c1ccc2c(c1)ccc1c3ccccc3ccc21 , readout=GI50) returns > 50 µM

GI50 measured on COC1CCC(n2c([C@@H]3CCCC(=O)N3c3ccc(F)c(F)c3)nc3cc(-c4c(C)noc4C)ccc32)CC1 (stereo partly drawn) = 9.79 µM

----------
tested on: UACC-257 melanoma; assay: NCI tumour cell line growth inhibition, 48 h
measured_metric: GI50

Form field GI50, entry COc1ccc2sc3c(NCCCNCCO)nc4ccccc4c3c(=O)c2c1 : 1930 nM

Entry under test: COc1cc2c3c(n(C)c(=O)c2cc1OC)-c1cc2c(cc1/C3=C\[C@@H](N)CCCCN)OCO2 . Its GI50 was 5240 nM

The value of GI50 measured for the compound Oc1ccc(-c2nc3ccc4[nH]ncc4c3c3c2CCCC3)c2cccnc12 turned out to be 888 nM
